As an illustration, consider measured MNEC for molecules on DNA gyrase (Staphylococcus aureus) (UniProt P0A0K8+P20831).
Sequence (P0A0K8 2-644 limits assumed): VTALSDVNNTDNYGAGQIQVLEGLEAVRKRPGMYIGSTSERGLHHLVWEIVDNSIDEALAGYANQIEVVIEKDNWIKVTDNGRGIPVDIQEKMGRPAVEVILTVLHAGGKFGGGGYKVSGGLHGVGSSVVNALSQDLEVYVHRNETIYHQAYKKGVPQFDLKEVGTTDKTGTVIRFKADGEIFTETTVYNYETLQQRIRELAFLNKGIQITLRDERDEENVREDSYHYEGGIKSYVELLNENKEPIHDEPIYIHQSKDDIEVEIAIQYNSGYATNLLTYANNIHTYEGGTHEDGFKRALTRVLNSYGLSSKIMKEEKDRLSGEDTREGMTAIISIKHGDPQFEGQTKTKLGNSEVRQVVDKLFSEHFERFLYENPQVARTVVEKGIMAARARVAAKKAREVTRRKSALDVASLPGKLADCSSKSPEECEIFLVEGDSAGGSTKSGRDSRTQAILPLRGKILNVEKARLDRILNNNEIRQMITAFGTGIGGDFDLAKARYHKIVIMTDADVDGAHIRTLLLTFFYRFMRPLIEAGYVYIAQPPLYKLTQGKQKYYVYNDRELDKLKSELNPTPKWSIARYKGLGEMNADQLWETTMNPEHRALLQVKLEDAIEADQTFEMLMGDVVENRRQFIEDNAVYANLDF
Sequence (P20831 whole entry partner): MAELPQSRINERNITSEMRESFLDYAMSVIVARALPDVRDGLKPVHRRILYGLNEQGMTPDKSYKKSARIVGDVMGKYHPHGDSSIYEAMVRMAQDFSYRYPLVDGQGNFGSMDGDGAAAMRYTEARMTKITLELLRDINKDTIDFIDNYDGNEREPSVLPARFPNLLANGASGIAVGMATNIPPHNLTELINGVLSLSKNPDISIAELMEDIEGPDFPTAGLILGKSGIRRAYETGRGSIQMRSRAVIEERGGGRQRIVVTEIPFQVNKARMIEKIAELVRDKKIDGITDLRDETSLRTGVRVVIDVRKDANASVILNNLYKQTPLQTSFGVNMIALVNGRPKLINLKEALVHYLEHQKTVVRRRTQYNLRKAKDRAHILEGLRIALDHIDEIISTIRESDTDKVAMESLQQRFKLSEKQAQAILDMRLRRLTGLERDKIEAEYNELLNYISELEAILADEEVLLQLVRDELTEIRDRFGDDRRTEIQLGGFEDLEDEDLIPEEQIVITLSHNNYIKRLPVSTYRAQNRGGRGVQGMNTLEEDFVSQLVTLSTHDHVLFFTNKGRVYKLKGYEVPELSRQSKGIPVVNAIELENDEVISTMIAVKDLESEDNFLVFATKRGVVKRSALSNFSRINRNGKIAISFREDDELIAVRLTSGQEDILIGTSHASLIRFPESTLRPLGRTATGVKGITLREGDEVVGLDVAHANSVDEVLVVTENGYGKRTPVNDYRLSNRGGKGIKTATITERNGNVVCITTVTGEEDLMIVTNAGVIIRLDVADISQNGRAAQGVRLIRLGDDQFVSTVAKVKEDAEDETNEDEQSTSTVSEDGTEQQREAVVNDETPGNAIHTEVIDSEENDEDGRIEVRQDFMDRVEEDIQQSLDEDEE
measured_quantity: MNEC (µg/mL)

molecule=N#Cc1cnc(S)nc1N measure_unit=µg/mL sign_qualifier== obs_value=16
molecule=Oc1ccc(Cl)cc1CNc1ccc(Cl)cc1 measure_unit=µg/mL sign_qualifier== obs_value=5
molecule=Cc1csc(NS(=O)(=O)c2ccc(F)cc2F)c1C(N)=O measure_unit=µg/mL sign_qualifier== obs_value=10
molecule=O=[N+]([O-])c1ccc2[nH]nc(-c3ccccc3)c2c1 measure_unit=µg/mL sign_qualifier== obs_value=63
molecule=Cc1c(O)cc(O)c2c1C(=O)OC[C@H](NC(=O)[C@@H]1[C@H](O)CCN1C(=O)[C@@H](N)CO)C(=O)N[C@H](C(=O)N[C@@H](C)C(=O)O)CSC2 measure_unit=µg/mL sign_qualifier== obs_value=0.05
molecule=Cc1[nH]c2ncnc(Cl)c2c1C measure_unit=µg/mL sign_qualifier== obs_value=31
molecule=Cc1cc(=O)oc2cc(SCc3n[nH]c4ccccc34)ccc12 measure_unit=µg/mL sign_qualifier== obs_value=8
molecule=Cc1cc(=O)oc2cc(SCc3n[nH]c4cccc(OCc5ccc(C(C)(C)C)cc5)c34)ccc12 measure_unit=µg/mL sign_qualifier== obs_value=0.03
molecule=c1ccc(-c2[nH]nc3ccccc23)cc1 measure_unit=µg/mL sign_qualifier== obs_value=8
molecule=Nc1ccncn1 measure_unit=µg/mL sign_qualifier=> obs_value=250
molecule="OC(CCCCl)c1cc2ccccc2[nH]1 (stereo not drawn)" measure_unit=µg/mL sign_qualifier== obs_value=16
molecule=NC(=O)Oc1cc([N+](=O)[O-])ccc1CSCc1ccc(Cl)c(Cl)c1 measure_unit=µg/mL sign_qualifier== obs_value=31
molecule=Nc1ccccn1 measure_unit=µg/mL sign_qualifier=> obs_value=250

###

Let's go through some MNEC measurements on DNA gyrase (Staphylococcus aureus) (UniProt P0A0K8+P20831) together.
measured_quantity: MNEC (µg/mL)

structure_smiles_string=CSc1nc(N)nc(SCCN2CCOCC2)n1 system_tested="DNA gyrase (Staphylococcus aureus) (UniProt P0A0K8+P20831)" sign_qualifier== obs_value=31
structure_smiles_string=Nc1ncncn1 system_tested="DNA gyrase (Staphylococcus aureus) (UniProt P0A0K8+P20831)" sign_qualifier=> obs_value=250
structure_smiles_string=Nc1ncccn1 system_tested="DNA gyrase (Staphylococcus aureus) (UniProt P0A0K8+P20831)" sign_qualifier=> obs_value=250
structure_smiles_string=Cc1cc(=O)oc2cc(SCc3n[nH]c4cccc(OCc5ccccc5)c34)ccc12 system_tested="DNA gyrase (Staphylococcus aureus) (UniProt P0A0K8+P20831)" sign_qualifier== obs_value=0.25

###

# procedure_details: Dissociation constant determined by heteronuclear 1H/15N correlation NMR spectroscopy
# Type: physicochemical
measured_quantity: Kd (mM)

structure_smiles_string=Nc1ncccn1 measured_quantity=Kd measure_unit=mM obs_value=60
structure_smiles_string=Nc1ncncn1 measured_quantity=Kd measure_unit=mM obs_value=60
